Examples of proteins with documented kcat follow.
- Substrate: C1O[C@@H]1[C@@H]1CO1
- assay: purified protein
- applied conditions: 5 mM GSH, 0.10 M Tris-HCl pH 7.7, 37 °C, 1 h
Please respond with the number in s⁻¹ and leave the unit unwritten.

Examples from the recorded data:
protein	unit	kcat
rat GST 5-5 (Rattus norvegicus) (protein) VLELYLDLLSQPCRAIYIFAKKNNIPFQMHTVELRKGEHLSDAFAQVNPMKKVPAMKDGGFTLCESVAILLYLAHKYKVPDHWYPQDLQARARVDEYLAWQHTTLRRSCLRTLWHKVMFPVFLGEQIRPEMLAATLADLDVNVQVLEDQFLQDKDFLVGPHISLADVVAITELMHPVGGGCPVFEGRPRLAAWYRRVEAAVGKDLFLEAHEVILKVRDCPPADPVIKQKLMPRVLTMIQ	s⁻¹	0.0638
human GST P1-1 (Homo sapiens) (protein) PPYTVVYFPVRGRCAALRMLLADQGQSWKEEVVTVETWQEGSLKASCLYGQLPKFQDGDLTLYQSNTILRHLGRTLGLYGKDQQEAALVDMVNDGVEDLRCKYISLIYTNYEAGKDDYVKALPGQLKPFETLLSQNQGGKTFIVGDQISFADYNLLDLLLIHEVLAPGCLDAFPLLSAYVGRLSARPKLKAFLASPEYVNLPINGNGKQ	s⁻¹	0.044
human GST T1-1 (Homo sapiens) (protein) GLELYLDLLSQPCRAVYIFAKKNDIPFELRIVDLIKGQHLSDAFAQVNPLKKVPALKDGDFTLTESVAILLYLTRKYKVPDYWYPQDLQARARVDEYLAWQHTTLRRSCLRALWHKVMFPVFLGEPVSPQTLAATLAELDVTLQLLEDKFLQNKAFLTGPHISLADLVAITELMHPVGAGCQVFEGRPKLATWRQRVEAAVGEDLFQEAHEVILKAKDFPPADPTIKQKLMPWVLAMIR	s⁻¹	0.0618
human GST A1-1 (Homo sapiens) (protein) AEKPKLHYFNARGRMESTRWLLAAAGVEFEEKFIKSAEDLDKLRNDGYLMFQQVPMVEIDGMKLVQTRAILNYIASKYNLYGKDIKERALIDMYIEGIADLGEMILLLPVCPPEEKDAKLALIKEKIKNRYFPAFEKVLKSHGQDYLVGNKLSRADIHLVELLYYVEELDSSLISSFPLLKALKTRISNLPTVKKFLQPGSPRKPPMDEKSLEEARKIFRF	s⁻¹	0.0228

We now examine a further protein.
Given the protein human GST A3-3 (Homo sapiens) (protein) AGKPKLHYFNGRGRMEPIRWLLAAAGVEFEEKFIGSAEDLGKLRNDGSLMFQQVPMVEIDGMKLVQTRAILNYIASKYNLYGKDIKERALIDMYTEGMADLNEMILLLPLCRPEEKDAKIALIKEKTKSRYFPAFEKVLQSHGQDYLVGNKLSRADISLVELLYYVEELDSSLISNFPLLKALKTRISNLPTVKKFLQPGSPRKPPADAKALEEARKIFRF , what is its reported kcat?
0.0253
